- System: E. coli clinical strain 2018XJ105
- Assay notes: microbe, parasite or virus in culture
- Assay type: cell-based, Escherichia coli
- Stated conditions: clinical strain 2018XJ105
Where a SMILES comes first, the peptide text is derived from it.
Readout label: MIC

1. CS(=O)(=O)c1ccc([C@@H](OC(=O)CCCC(=O)N[C@@H](CCCNC(=N)N)C(N)=O)[C@@H](CF)NC(=O)C(Cl)Cl)cc1 [Compound E8]    >100 µM
2. N=C(N)NCCC[C@H](NC(=O)[C@@H](N)CCCNC(=N)N)C(N)=O [Compound D3] (H-Arg-Arg-NH2)    >100 µM
3. N=C(N)NCCC[C@H](NC(=O)[C@H](CCCNC(=N)N)NC(=O)[C@H](CCCNC(=N)N)NC(=O)[C@H](CCCNC(=N)N)NC(=O)[C@H](CCCNC(=N)N)NC(=O)[C@@H](N)CCCNC(=N)N)C(N)=O [Compound D5]    100 µM
